Parameter: pKi. Scope: all listed entries.
Target System: Human μ-opioid receptor (Homo sapiens, UniProt P35372)
Sequence (P35372 whole entry): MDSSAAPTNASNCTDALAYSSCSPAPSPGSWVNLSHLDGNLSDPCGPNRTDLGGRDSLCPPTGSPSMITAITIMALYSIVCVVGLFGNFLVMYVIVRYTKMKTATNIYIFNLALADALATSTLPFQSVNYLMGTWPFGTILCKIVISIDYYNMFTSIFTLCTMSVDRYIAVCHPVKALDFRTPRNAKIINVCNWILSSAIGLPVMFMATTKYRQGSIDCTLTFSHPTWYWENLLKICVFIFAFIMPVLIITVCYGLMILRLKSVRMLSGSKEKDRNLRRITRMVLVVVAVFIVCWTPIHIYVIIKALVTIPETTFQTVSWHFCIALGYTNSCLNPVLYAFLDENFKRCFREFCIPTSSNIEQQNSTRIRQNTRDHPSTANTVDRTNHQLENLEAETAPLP
Test Name: biochemical
Format: binding
pKi: −log10 of the molar value.
Property Measured: pKi

CCC[C@@H](c1nc2nc(C(F)(F)F)ccc2c(=O)n1CC)N1CCN[C@@H](C)C1 = < 6.30
CCC[C@H](c1nc2cc(F)c(Br)cc2c(=O)n1CC)N1CCN[C@@H](C)C1 = > 7.00
CCC[C@@H](c1nc2ccncc2c(=O)n1CC)N1CCN[C@@H](C)C1 = < 6.30
CCC[C@@H](c1nc2ncc(Br)cc2c(=O)n1CC)N1CCN[C@@H](C)C1 = < 6.30
CCC[C@@H](c1nc2c(F)cc(Br)cc2c(=O)n1CC)N1CCN[C@@H](C)C1 = < 6.30
CCC[C@H](c1nc2ccc(F)cc2c(=O)n1CC)N1CCN[C@@H](C)C1 = 6.30 to 7.00
CCC[C@@H](c1nc2ccc(Br)cc2c(=O)n1CC)[C@H]1CCNCC1(F)F = < 6.30
CCCC(c1nc2cc(Br)ccc2c(=O)n1CC)N1CCNCC1 (centres unmarked) = < 6.30
CCCC(c1nc2cc(C(=O)NCc3ccccc3)ccc2c(=O)n1CC)N1C[C@@H](C)N[C@@H](C)C1 (some centres unmarked) = < 6.30
CCC[C@H](c1nc2c(F)cc(Br)cc2c(=O)n1CC)N1CCNCC1 = 6.30 to 7.00
CCC[C@H](c1nc2c(F)cc(Cl)cc2c(=O)n1CC)N1CCNCC1 = 6.30 to 7.00
CCC[C@H](c1nc2cc(O[C@H](CNC)c3ccccc3)ccc2c(=O)n1C)N1C[C@@H](C)N[C@@H](C)C1 = < 6.30
CCCC(c1nc2cc(CO)ccc2c(=O)n1C)N1C[C@@H](C)N[C@@H](C)C1 (some centres unmarked) = < 6.30
CCC[C@H](c1nc2ccc(Cl)cc2c(=O)n1CC)N1CCN[C@H](C)C1 = < 6.30
CCC[C@H](c1nc2ccc(Br)cc2c(=O)n1CC)N1CCN[C@H](C)C1 = < 6.30
CCCC(c1nc2cc(C)ccc2c(=O)n1CC)N1C[C@@H](C)N[C@@H](C)C1 (some centres unmarked) = < 6.30
CCCC(c1nc2ccc(N3CCC(N)CC3)cc2c(=O)n1CC)N1C[C@@H](C)N[C@@H](C)C1 (some centres unmarked) = < 6.30

Data provenance is patent US20220002314A1.
